Tested on: NCI-H23 complex spheroids with HUVEC/MSC, viability
protocol.text: Anticancer human tumor NCI-H23 cell line growth inhibition [RAS];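 note: spheroids exposed to compound for 7 days; 100% = DMSO vehicle control viability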
test.conditions: second compound 0.00949 µM; first compound 10 µM; stronger effect = lower value
reported.property: viability, T/C

Fill blank: measured viability, T/C of the compound CC1(O)CCCC1n1c(=O)c(C(F)F)cc2cnc(NC3CCN(S(C)(=O)=O)CC3)nc21 (stereo unspecified) + CCn1c(-c2cc(N3CCN(C)CC3)cnc2C(C)OC)c2c3cc(ccc31)-c1csc(n1)CC(NC(=O)C1CC1C)C(=O)N1CCCC(N1)C(=O)OCC(C)(C)C2 is ____. 1.78%

Fill blank: measured viability, T/C of the compound Cc1nc(N2CCC3(CC2)COC(C)C3N)c(CO)nc1Sc1ccnc(N)c1Cl (stereo unspecified) + CCn1c(-c2cc(N3CCN(C)CC3)cnc2C(C)OC)c2c3cc(ccc31)-c1csc(n1)CC(NC(=O)C1CC1C)C(=O)N1CCCC(N1)C(=O)OCC(C)(C)C2 is ____. 7.55%

Fill blank: measured viability, T/C of the compound CCC(CC)c1cc(NC2CCC(N)C2)n2nccc2n1 (stereo unspecified) + CCn1c(-c2cccnc2C(C)OC)c2c3cc(ccc31)N1CCOC(CC(NC(=O)C(C(C)C)N(C)C(=O)C3(F)CCN(C(=O)C#CC(C)(C)N(C)C)CC3)C(=O)N3CCCC(N3)C(=O)OCC(C)(C)C2)C1 is ____. 0.37%
